Source of measurements: patent US11976069B2

IC50 values, listed per item
- target-system: HDAC1 (Homo sapiens, UniProt Q13547)
- Sequence (Q13547 whole entry): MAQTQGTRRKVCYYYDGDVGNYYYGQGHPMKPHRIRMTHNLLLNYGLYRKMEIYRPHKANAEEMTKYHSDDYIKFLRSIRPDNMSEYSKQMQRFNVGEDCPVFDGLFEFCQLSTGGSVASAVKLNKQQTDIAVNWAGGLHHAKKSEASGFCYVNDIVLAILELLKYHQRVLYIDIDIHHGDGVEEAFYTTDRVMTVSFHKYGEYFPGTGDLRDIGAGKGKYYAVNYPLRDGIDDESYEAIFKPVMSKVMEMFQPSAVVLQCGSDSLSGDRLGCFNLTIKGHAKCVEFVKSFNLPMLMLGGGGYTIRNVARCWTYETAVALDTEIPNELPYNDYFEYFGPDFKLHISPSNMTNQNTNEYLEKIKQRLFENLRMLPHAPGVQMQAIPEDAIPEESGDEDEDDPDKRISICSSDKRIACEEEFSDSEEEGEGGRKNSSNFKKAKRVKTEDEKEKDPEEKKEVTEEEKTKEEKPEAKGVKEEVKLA

| compound | target-system | IC50, nM |
| --- | --- | --- |
| CCC(=O)CCCCC[C@H](NC(=O)[C@H]1CC12CCN(CC)CC2)c1[nH]c2nc1C(=O)NCCCCCc1cccc-2c1 [Compound 13] | HDAC1 (Homo sapiens, UniProt Q13547) | 109 |
| CCC(=O)CCCCC[C@@H]1NC(=O)[C@H]2CC23CCN(CCCCCCCCn2ccc4cc(ccc4c2=O)-c2cnc1[nH]2)CC3 [Compound 1] | HDAC1 (Homo sapiens, UniProt Q13547) | 0.2 |
| CCC(=O)CCCCC[C@@H]1NC(=O)[C@H]2CC23CCN(CCCCCCCCn2ccc4cc(c(OC)cc4c2=O)-c2cnc1[nH]2)CC3 [Compound 5] | HDAC1 (Homo sapiens, UniProt Q13547) | 0.11 |
| CCC(=O)CCCCC[C@@H]1NC(=O)[C@H]2CC23CCN(CCOCCn2ccc4cc(ccc4c2=O)-c2cnc1[nH]2)CC3 [Compound 4] | HDAC1 (Homo sapiens, UniProt Q13547) | 0.61 |
| CCC(=O)CCCCC[C@@H]1NC(=O)[C@H]2CC23CCN(C/C=C/CN2C4CCC2c2cc(ccc24)-c2cnc1[nH]2)CC3 (stereo partly shown) [Compound 3] | HDAC1 (Homo sapiens, UniProt Q13547) | 2.7 |
| CCC(=O)CCCCC[C@@H]1NC(=O)[C@H]2CC23CCN(CCCCCOc2ccc4cc(ccc4n2)-c2cnc1o2)CC3 [Compound 9] | HDAC1 (Homo sapiens, UniProt Q13547) | 24 |
| CCC(=O)CCCCC[C@@H]1NC(=O)[C@H]2CC23CCN(CCCCN2C4CCC2c2c(cccc24)-c2cnc1[nH]2)CC3 (stereo partly shown) [Compound 2] | HDAC1 (Homo sapiens, UniProt Q13547) | 45 |
| CCC(=O)CCCCC[C@@H]1NC(=O)CN(C)CCCCOCCCCn2ccc3cc(ccc3c2=O)-c2cnc1[nH]2 [Compound 6] | HDAC1 (Homo sapiens, UniProt Q13547) | 28 |
| CCC(=O)CCCCC[C@@H]1NC(=O)[C@H]2CC23CCN(CCCOCCn2ccc4cc(ccc4c2=O)-c2cnc1[nH]2)CC3 [Compound 11] | HDAC1 (Homo sapiens, UniProt Q13547) | 0.11 |
| CCC(=O)CCCCCC1NC(=O)C2CC2N2CCC(CCCCCn3c(=O)ccc4cc(ccc43)-c3cnc1o3)CC2 (stereo not shown) [Compound 7] | HDAC1 (Homo sapiens, UniProt Q13547) | 16 |
| CCC(=O)CCCCC[C@H](NC(=O)[C@H]1CC12CCN(CC)CC2)c1[nH]c2nc1C(=O)NCCC/C=C/c1cccc-2c1 [Compound 15] | HDAC1 (Homo sapiens, UniProt Q13547) | 21 |
| CCC(=O)CCCCC[C@@H]1NC(=O)[C@H]2CC23CCN(CCCOCCCn2ccc4cc(ccc4c2=O)-c2cnc1[nH]2)CC3 [Compound 12] | HDAC1 (Homo sapiens, UniProt Q13547) | 0.33 |
| CCC(=O)CCCCC[C@@H]1NC(=O)[C@H]2CC23CCN(CCCCN2C4CCC2c2cc(ccc24)-c2cnc1[nH]2)CC3 (stereo partly shown) [Compound 10] | HDAC1 (Homo sapiens, UniProt Q13547) | 19 |
